Tested on: HOP-62 multicell spheroids with HUVEC/MSC, viability
Assay: Anticancer human tumor HOP-62 cell line growth inhibition [KRAS2];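 further: viability read after a week of compound exposure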
Settings: second compound 3.16 µM; first compound 0.316 µM; hits give low values
Response field label: string, one of fulfilled (viability, T/C strictly below 20%) or not fulfilled.

[[record]]
compound = "CC1(C)CCC(CN2CCN(c3ccc(C(=O)NS(=O)(=O)c4ccc(NCC5CCOCC5)c([N+](=O)[O-])c4)c(Oc4cnc5[nH]ccc5c4)c3)CC2)=C(c2ccc(Cl)cc2)C1 + CC1OCC2(CCN(c3cnc(Sc4ccnc(N)c4Cl)c(N)n3)CC2)C1N"
measured_target = "HOP-62 multicell spheroids with HUVEC/MSC, viability"
class = "not fulfilled"

[[record]]
compound = "CC1COCCN1c1cc(-c2ccnn2C)c2ccnc(-c3ccn[nH]3)c2n1 (stereo not given) + COc1cc2nc(C)nc(NC(C)c3cc(N)cc(C(F)(F)F)c3)c2cc1OC1CCOC1"
measured_target = "HOP-62 multicell spheroids with HUVEC/MSC, viability"
class = "fulfilled"

[[record]]
compound = "COc1cc2nccc(Oc3ccc(NC(=O)C4(C(=O)Nc5ccc(F)cc5)CC4)cc3)c2cc1OC + CNCc1ccccc1-c1csc(C(C)Nc2nc(C)nc3cc(OC)c(OC)cc23)c1"
measured_target = "HOP-62 multicell spheroids with HUVEC/MSC, viability"
class = "fulfilled"

[[record]]
compound = "CC1COCCN1c1cc(-c2ccnn2C)c2ccnc(-c3ccn[nH]3)c2n1 (stereo not given) + CC1OCC2(CCN(c3cnc(Sc4ccnc(N)c4Cl)c(N)n3)CC2)C1N"
measured_target = "HOP-62 multicell spheroids with HUVEC/MSC, viability"
class = "fulfilled"

[[record]]
compound = "CC(=O)OC12COC1CC(O)C1(C)C(=O)C(O)C3=C(C)C(OC(=O)C(O)C(NC(=O)OC(C)(C)C)c4ccccc4)CC(O)(C(OC(=O)c4ccccc4)C21)C3(C)C (stereo not given) + COc1cc2nc(C)nc(NC(C)c3cc(N)cc(C(F)(F)F)c3)c2cc1OC1CCOC1"
measured_target = "HOP-62 multicell spheroids with HUVEC/MSC, viability"
class = "not fulfilled"

[[record]]
compound = "CCNC(=O)CC1N=C(c2ccc(Cl)cc2)c2cc(OC)ccc2-n2c(C)nnc21 (stereo not given) + COc1cc2nc(C)nc(NC(C)c3cc(N)cc(C(F)(F)F)c3)c2cc1OC1CCOC1"
measured_target = "HOP-62 multicell spheroids with HUVEC/MSC, viability"
class = "not fulfilled"

[[record]]
compound = "COC(=O)c1ccc2c(C(=Nc3ccc(N(C)C(=O)CN4CCN(C)CC4)cc3)c3ccccc3)c(O)[nH]c2c1 + CC1OCC2(CCN(c3cnc(Sc4ccnc(N)c4Cl)c(N)n3)CC2)C1N"
measured_target = "HOP-62 multicell spheroids with HUVEC/MSC, viability"
class = "fulfilled"

[[record]]
compound = "COc1cc(Nc2ncc3c(n2)-c2ccc(Cl)cc2C(c2c(F)cccc2OC)=NC3)ccc1C(=O)O + CNCc1ccccc1-c1csc(C(C)Nc2nc(C)nc3cc(OC)c(OC)cc23)c1"
measured_target = "HOP-62 multicell spheroids with HUVEC/MSC, viability"
class = "fulfilled"

[[record]]
compound = "Cn1nccc1Nc1nccc(-c2cc3c(s2)C(C)(C)N(CCN2CCOCC2)C3=O)n1 + CNCc1ccccc1-c1csc(C(C)Nc2nc(C)nc3cc(OC)c(OC)cc23)c1"
measured_target = "HOP-62 multicell spheroids with HUVEC/MSC, viability"
class = "fulfilled"

[[record]]
compound = "Cn1nccc1Nc1nccc(-c2cc3c(s2)C(C)(C)N(CCN2CCOCC2)C3=O)n1 + C=CC(=O)N1CCN(c2nc(=O)n(-c3c(C)ccnc3C(C)C)c3nc(-c4c(O)cccc4F)c(F)cc23)C(C)C1"
measured_target = "HOP-62 multicell spheroids with HUVEC/MSC, viability"
class = "not fulfilled"

[[record]]
compound = "CCN1CCN(Cc2ccc(Nc3ncc(F)c(-c4cc(F)c5nc(C)n(C(C)C)c5c4)n3)nc2)CC1 + C=CC(=O)N1CCN(c2nc(=O)n(-c3c(C)ccnc3C(C)C)c3nc(-c4c(O)cccc4F)c(F)cc23)C(C)C1"
measured_target = "HOP-62 multicell spheroids with HUVEC/MSC, viability"
class = "not fulfilled"

[[record]]
compound = "COc1cc(Nc2ncc3c(n2)-c2ccc(Cl)cc2C(c2c(F)cccc2OC)=NC3)ccc1C(=O)O + C=CC(=O)N1CCN(c2nc(=O)n(-c3c(C)ccnc3C(C)C)c3nc(-c4c(O)cccc4F)c(F)cc23)C(C)C1"
measured_target = "HOP-62 multicell spheroids with HUVEC/MSC, viability"
class = "not fulfilled"

[[record]]
compound = "CC1(C)CCC(CN2CCN(c3ccc(C(=O)NS(=O)(=O)c4ccc(NCC5CCOCC5)c([N+](=O)[O-])c4)c(Oc4cnc5[nH]ccc5c4)c3)CC2)=C(c2ccc(Cl)cc2)C1 + C=CC(=O)N1CCN(c2nc(=O)n(-c3c(C)ccnc3C(C)C)c3nc(-c4c(O)cccc4F)c(F)cc23)C(C)C1"
measured_target = "HOP-62 multicell spheroids with HUVEC/MSC, viability"
class = "not fulfilled"

[[record]]
compound = "COc1cc2nccc(Oc3ccc(NC(=O)C4(C(=O)Nc5ccc(F)cc5)CC4)cc3)c2cc1OC + CC1OCC2(CCN(c3cnc(Sc4ccnc(N)c4Cl)c(N)n3)CC2)C1N"
measured_target = "HOP-62 multicell spheroids with HUVEC/MSC, viability"
class = "fulfilled"

[[record]]
compound = "O=C(c1cc(Cc2n[nH]c(=O)c3ccccc23)ccc1F)N1CCN(C(=O)C2CC2)CC1 + C=CC(=O)N1CCN(c2nc(=O)n(-c3c(C)ccnc3C(C)C)c3nc(-c4c(O)cccc4F)c(F)cc23)C(C)C1"
measured_target = "HOP-62 multicell spheroids with HUVEC/MSC, viability"
class = "not fulfilled"

[[record]]
compound = "COc1cc(Nc2ncc3c(n2)-c2ccc(Cl)cc2C(c2c(F)cccc2OC)=NC3)ccc1C(=O)O + CC1OCC2(CCN(c3cnc(Sc4ccnc(N)c4Cl)c(N)n3)CC2)C1N"
measured_target = "HOP-62 multicell spheroids with HUVEC/MSC, viability"
class = "not fulfilled"

[[record]]
compound = "CC1COCCN1c1cc(-c2ccnn2C)c2ccnc(-c3ccn[nH]3)c2n1 (stereo not given) + CNCc1ccccc1-c1csc(C(C)Nc2nc(C)nc3cc(OC)c(OC)cc23)c1"
measured_target = "HOP-62 multicell spheroids with HUVEC/MSC, viability"
class = "fulfilled"

[[record]]
compound = "O=C(c1cc(Cc2n[nH]c(=O)c3ccccc23)ccc1F)N1CCN(C(=O)C2CC2)CC1 + CC1OCC2(CCN(c3cnc(Sc4ccnc(N)c4Cl)c(N)n3)CC2)C1N"
measured_target = "HOP-62 multicell spheroids with HUVEC/MSC, viability"
class = "not fulfilled"

[[record]]
compound = "CC1(C)CCC(CN2CCN(c3ccc(C(=O)NS(=O)(=O)c4ccc(NCC5CCOCC5)c([N+](=O)[O-])c4)c(Oc4cnc5[nH]ccc5c4)c3)CC2)=C(c2ccc(Cl)cc2)C1 + CNCc1ccccc1-c1csc(C(C)Nc2nc(C)nc3cc(OC)c(OC)cc23)c1"
measured_target = "HOP-62 multicell spheroids with HUVEC/MSC, viability"
class = "fulfilled"

[[record]]
compound = "COc1cc2nccc(Oc3ccc(NC(=O)C4(C(=O)Nc5ccc(F)cc5)CC4)cc3)c2cc1OC + C=CC(=O)N1CCN(c2nc(=O)n(-c3c(C)ccnc3C(C)C)c3nc(-c4c(O)cccc4F)c(F)cc23)C(C)C1"
measured_target = "HOP-62 multicell spheroids with HUVEC/MSC, viability"
class = "not fulfilled"

